test system: wild oat (Avena fatua); test: Test B pre-/postemergence plant response; format: in vivo; settings: Preemergence, 31 g ai/ha; scale 0 to 100 (0 no effect, 100 complete control)
Plant response rating, Oat, Wild reference
Kindly provide the number alone.

{"COMPOUND_STRING": "Cc1cc(-c2ccc(Cl)cc2)nn1-c1c(OS(=O)(=O)c2ccccc2[N+](=O)[O-])cnn(C)c1=O", "TARGET_OR_SYSTEM": "wild oat (Avena fatua)", "Plant response rating, Oat, Wild": 80}
{"COMPOUND_STRING": "C#CCOC(=O)Oc1cnn(C)c(=O)c1-n1nc(-c2ccc(Cl)cc2)cc1C", "TARGET_OR_SYSTEM": "wild oat (Avena fatua)", "Plant response rating, Oat, Wild": 80}
{"COMPOUND_STRING": "Cc1cc(-c2ccc(Cl)cc2)nn1-c1c(OC(=S)N(C)C)cnn(C)c1=O", "TARGET_OR_SYSTEM": "wild oat (Avena fatua)", "Plant response rating, Oat, Wild": 20}
{"COMPOUND_STRING": "CCc1cc(-c2ccc(C(F)(F)F)cc2)nn1-c1c(O)cnn(CC)c1=O", "TARGET_OR_SYSTEM": "wild oat (Avena fatua)", "Plant response rating, Oat, Wild": 95}

Prompt line: GET /values?readout=Plant response rating, Oat, Wild&item= Cc1cc(-c2ccc(Cl)cc2)nn1-c1c(OC(=O)OCC(C)C)cnn(C)c1=O
Response line: 70

====

Item-by-item account of Plant response rating, Surinam Grass
test system: surinam grass (Brachiaria decumbens); test: Test B pre-/postemergence plant response; format: in vivo; conditions: Postemergence, 31 g ai/ha, scale 0 to 100
# output: bare number, no unit

Here are 3 compounds together with their reported answers.
{"COMPOUND_STRING": "Cc1cc(-c2ccc(Cl)cc2)nn1-c1c(OC(=O)OCC(C)C)cnn(C)c1=O", "QUANTITY_NAME": "Plant response rating, Surinam Grass", "MEASURED_NUMBER": 100}
{"COMPOUND_STRING": "Cc1cc(-c2ccc(Cl)cc2)nn1-c1c(OC(=S)N(C)C)cnn(C)c1=O", "QUANTITY_NAME": "Plant response rating, Surinam Grass", "MEASURED_NUMBER": 80}
{"COMPOUND_STRING": "Cc1nn(C)c(=O)c(-n2nc(-c3ccc(Br)cc3)cc2C)c1O", "QUANTITY_NAME": "Plant response rating, Surinam Grass", "MEASURED_NUMBER": 100}

Prompt line: Plant response rating, Surinam Grass lookup needed for CCc1cc(-c2ccc(C(F)(F)F)cc2)nn1-c1c(O)cnn(CC)c1=O , thanks.
Response line: 100

====

The following molecules are shown together with reported Goosegrass plant response rating values.
Test system: goosegrass (Eleusine indica)
Assay: Test B pre-/postemergence plant response
Assay type: in vivo
Details: 16 g ai/ha, postemergence; 0-100 scale
From the text: […] Plant species in the flooded paddy test consisted of rice (Oryza sativa), umbrella sedge (Cyperus difformis), ducksalad (Heteranthera limosa) and barnyardgrass (Echinochloa crus-galli) grown to the 2-leaf stage for testing. […] Treated plants and controls were maintained in a greenhouse for 13 to 15 days, after which time all species were compared to controls and visually evaluated. […]
Please reply with the value in numeric form only.

Below, 4 molecules whose answers are already recorded.
{"COMPOUND_STRING": "Cc1nn(C)c(=O)c(-n2nc(-c3ccc(C(F)(F)F)cc3)cc2C)c1O", "MEASURED_NUMBER": 50}
{"COMPOUND_STRING": "Cc1nn(C)c(=O)c(-n2nc(-c3ccc(Br)cc3)cc2C)c1O", "MEASURED_NUMBER": 70}
{"COMPOUND_STRING": "Cc1cc(-c2ccc(Br)cc2)nn1-c1c(O)cn[nH]c1=O", "MEASURED_NUMBER": 85}
{"COMPOUND_STRING": "CCc1cc(-c2ccc(C(F)(F)F)cc2)nn1-c1c(O)cnn(CC)c1=O", "MEASURED_NUMBER": 70}

Prompt line: What measured Goosegrass plant response rating goes with Cc1cc(-c2ccc(Br)cc2)nn1-c1c(OC(=O)C2CC2)cnn(C(=O)C2CC2)c1=O ?
Response line: 75

Prompt line: Can you share its Goosegrass plant response rating? I mean this molecule: CCc1cc(-c2ccc(Br)cc2)nn1-c1c(O)cnn(C)c1=O
Response line: 100

====

Listed here are compounds together with their documented Plant response rating, Crabgrass, Large.
system: large crabgrass (Digitaria sanguinalis); experiment: Test E pre-/postemergence plant response; format: in vivo; settings: Postemergence, 31 g ai/ha, scale 0 to 100

{"COMPOUND_STRING": "Cn1ncc(O)c(-c2nn(-c3ccc(Cl)cc3)cc2Br)c1=O", "Plant response rating, Crabgrass, Large": 75}
{"COMPOUND_STRING": "Cc1cc(-c2ccc(Cl)cc2)nn1-c1c(OS(C)(=O)=O)cnn(C)c1=O", "Plant response rating, Crabgrass, Large": 75}
{"COMPOUND_STRING": "CCc1cc(-c2ccc(C(F)(F)F)cc2)nn1-c1c(OS(C)(=O)=O)cnn(C)c1=O", "Plant response rating, Crabgrass, Large": 80}

For the next question, use this compound.
Prompt line: // Plant response rating, Crabgrass, Large lookup, key: CCc1cc(-c2ccc(Cl)cc2)nn1-c1c(OS(C)(=O)=O)cnn(C)c1=O
Response line: 95

====

tested on: lambsquarters (Chenopodium album); test: Test B pre-/postemergence plant response; assay type: in vivo; conditions: Preemergence, 31 g ai/ha; 0 to 100 scale, 0 no effect, 100 complete control
Below is a list of entries, each paired with its recorded Plant response rating, Lambsquarters value.
The answer should be written as a number, with no unit following it.

{"COMPOUND": "CCc1cc(-c2ccc(Cl)cc2)nn1-c1c(OS(C)(=O)=O)cnn(C)c1=O [Compound 39]", "MEASURED_NUMBER": 0}
{"COMPOUND": "Cc1cc(-c2ccc(Cl)cc2)nn1-c1c(OC(=O)C(C)C)cnn(C)c1=O [Compound 34]", "MEASURED_NUMBER": 0}
{"COMPOUND": "CCc1cc(-c2ccc(F)cc2)nn1-c1c(O)cnn(C)c1=O [Compound 25]", "MEASURED_NUMBER": 0}
{"COMPOUND": "CCc1cc(-c2ccc(Cl)cc2)nn1-c1c(OC(=O)C(C)(C)C)cnn(C)c1=O [Compound 40]", "MEASURED_NUMBER": 0}

Prompt line: Plant response rating, Lambsquarters lookup needed for Cn1ncc(O)c(-c2nn(-c3ccc(Cl)cc3)cc2Cl)c1=O [Compound 28] , thanks.
Response line: 95

====

System: barnyardgrass (Echinochloa crus-galli)
Assay: Test B flooded paddy test plant response
Format: in vivo
Conditions: Echinochloa crus-galli; Flood (flooded paddy test), 250 g ai/ha; scale 0 to 100, 0 no effect, 100 complete control; read-out: Plant response rating, Barnyardgrass
From the text: Plant species in the flooded paddy test consisted of rice (Oryza sativa), umbrella sedge (Cyperus difformis), ducksalad (Heteranthera limosa) and barnyardgrass (Echinochloa crus-galli) grown to the 2-leaf stage for testing. […] Treated plants and controls were maintained in a greenhouse for 13 to 15 days, after which time all species were compared to controls and visually evaluated. […]
QUANTITY_NAME: pest or weed control at 250 g/ha (%)
Return type: number; implicit unit %.

Prompt line: So what does the record say about pest or weed control at 250 g/ha for Cc1cc(-c2ccc(Br)cc2)nn1-c1c(OC(=O)C2CC2)cnn(C(=O)C2CC2)c1=O ?
Response line: 0

Prompt line: pest or weed control at 250 g/ha for Cc1cc(-c2ccc(C(F)(F)F)cc2)nn1-c1c(O)cnn(C)c1=O ?
Response line: 60

Prompt line: Tell me the measured pest or weed control at 250 g/ha of Cc1cn(-c2ccc(Cl)cc2)nc1-c1c(O)cnn(C)c1=O , please.
Response line: 0

Prompt line: So what does the record say about pest or weed control at 250 g/ha for Cc1nn(C)c(=O)c(-n2nc(-c3ccc(C(F)(F)F)cc3)cc2C)c1O ?
Response line: 0

====

Below is a list of entries, each paired with its recorded Plant response rating, Johnsongrass value.
test system: johnsongrass (Sorghum halepense); test: Test B pre-/postemergence plant response; assay type: in vivo; conditions: Preemergence, 31 g ai/ha; 0 to 100 scale, 0 no effect, 100 complete control
No unit in the answer, please; the number alone is enough.

Examples from the recorded data:
{"COMPOUND_STRING": "Cn1ncc(O)c(-c2nn(-c3ccc(Cl)cc3)cc2Cl)c1=O", "MEASURED_NUMBER": 98}
{"COMPOUND_STRING": "Cc1cc(-c2ccc(Br)cc2)nn1-c1c(O)cnn(C)c1=O", "MEASURED_NUMBER": 0}
{"COMPOUND_STRING": "Cn1ncc(O)c(-c2nn(-c3ccc(Cl)cc3)cc2Br)c1=O", "MEASURED_NUMBER": 75}
{"COMPOUND_STRING": "CCc1cc(-c2ccc(Cl)cc2)nn1-c1c(OC(=O)OC(C)C)cnn(C)c1=O", "MEASURED_NUMBER": 70}

As a next step, examine the compound that follows.
Prompt line: Item under review: CCc1cc(-c2ccc(Cl)cc2)nn1-c1c(OC(=O)C(C)(C)C)cnn(C)c1=O . Reported Plant response rating, Johnsongrass?
Response line: 98
